Data origin, for the record: patent US8877927B2

Entries and their bioavailability values follow.
Assay: Rat pharmacokinetics (oral bioavailability, clearance)
Type: in vivo
Details: in vivo, oral, read-out: Rat Oral Bioavailability (% F)
observed.property: bioavailability

compound: CC(C)C[C@H](NC(=O)c1ccc(N2CCN(C)CC2)cc1)C(=O)N1CC[C@H]2OCC(=O)[C@H]21
result: 31.5%

compound: CN1CCN(c2ccc(C(=O)N[C@H](C(=O)N3C[C@H](F)[C@H]4OCC(=O)[C@H]43)C3CCCC3)cc2)CC1
result: 88%

compound: CN1CCN(c2ccc(C(=O)N[C@H](C(=O)N3CC(F)[C@H]4OCC(=O)[C@H]43)C3CCCCC3)cc2)CC1 (stereo in doubt)
result: 80%

compound: CC(C)C[C@H](NC(=O)c1ccc(N2CCN(C)CC2)cc1)C(=O)N1C[C@@H](F)[C@H]2OCC(=O)[C@H]21
result: 40%

compound: CN1CCN(c2ccc(C(=O)N[C@H](C(=O)N3CC[C@H]4OCC(=O)[C@H]43)C3CCCC3)cc2)CC1
result: 45%

compound: CN1CCN(c2ccc(C(=O)N[C@H](C(=O)N3CC(Cl)[C@H]4OCC(=O)[C@H]43)C3CCCC3)cc2)CC1 (stereo in doubt)
result: 37%
